# TGI per record follows
Test system: M14 melanoma
assay.comment: NCI tumour cell line growth inhibition, 48 h
assay.metric: TGI

- CCCOc1nc(SCCC)nc2c1cnn2-c1ccccc1: > 100 µM
- O=C1NC(=O)C(COCc2ccccc2)C2=C1SCCC2 (stereo not drawn): > 100 µM
- O=C(Cc1ccccc1)NNc1nc(NNC(=O)c2ccncc2)nc(Nc2cccc(Cl)c2)n1: > 10 µM
- CCN(CC)CC(C(=O)Nc1c(C)cccc1C)/C(C)=N\NC(=O)c1ccncc1 (stereo not drawn): > 100 µM
- COC(=O)C1CCC(=O)N1C(c1ccccc1)c1cc(OC)c(OC)c(OC)c1 (stereo not drawn): > 100 µM
- CS(=O)(=O)Nc1ccc(N=Cc2c(O)[nH]c3ccccc23)cc1: > 25 µM
- CC(C)(CO)NC(=O)Nc1c(C(F)(F)F)cc(-c2ccccc2)[nH]c1=O: > 100 µM
- O=C(CCc1cc(-c2ccccc2)nc(=S)[nH]1)Nc1ccccc1[N+](=O)[O-]: > 100 µM
- Cc1ccc2c(c1)C(=O)c1c-2n(CCCBr)c(=O)c2cc([N+](=O)[O-])ccc12: > 100 µM
- O=c1c2cn[nH]c2nc2scc(-c3ccc(Cl)cc3)n12: > 100 µM
- COc1cccc2nc3cc(C)c(C)cc3nc12: > 100 µM
- Nc1c(C(=O)Nc2ccccc2)sc2nc3c(cc12)CN(Cc1ccccc1)CC3: > 100 µM
- C=CCCCC1CCCNC1=S (stereo not drawn): > 100 µM
